Biological target: CXCL1_HUMAN (human, UniProt P09341 35-107)
Sequence (P09341 35-107): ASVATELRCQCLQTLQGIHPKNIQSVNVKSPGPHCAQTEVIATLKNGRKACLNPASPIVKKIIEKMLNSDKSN
Experiment: BLI
Give measured pKd for each item. Keep answers brief.
Give bare numbers, as −log10 of the molar value.

For every listed record, write down its pKd.
1. P1078_IXORI (other) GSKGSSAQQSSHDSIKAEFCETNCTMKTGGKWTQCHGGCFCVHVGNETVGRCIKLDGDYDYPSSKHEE
2. P1080_IXORI (other) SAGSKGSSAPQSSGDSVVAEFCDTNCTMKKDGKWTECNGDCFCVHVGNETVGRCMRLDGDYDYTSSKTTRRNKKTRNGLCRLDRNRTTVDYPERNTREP
3. P1127_IXORI (other) AGKDDEHFSVDYCGMNCTQQEDGSWTACSGRNGECRCYHESGKRSGLCLSTTYIDFSEYGNLSDSDIAAASPRLSMKESH

[8.20, 7.26, 8.85]
